assayed-system: High affinity nerve growth factor receptor (Homo sapiens) (UniProt P04629);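 note: each value is a mean of replicate percent inhibition readings against TRKA kinase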
Sequence (P04629 33-796 limits assumed): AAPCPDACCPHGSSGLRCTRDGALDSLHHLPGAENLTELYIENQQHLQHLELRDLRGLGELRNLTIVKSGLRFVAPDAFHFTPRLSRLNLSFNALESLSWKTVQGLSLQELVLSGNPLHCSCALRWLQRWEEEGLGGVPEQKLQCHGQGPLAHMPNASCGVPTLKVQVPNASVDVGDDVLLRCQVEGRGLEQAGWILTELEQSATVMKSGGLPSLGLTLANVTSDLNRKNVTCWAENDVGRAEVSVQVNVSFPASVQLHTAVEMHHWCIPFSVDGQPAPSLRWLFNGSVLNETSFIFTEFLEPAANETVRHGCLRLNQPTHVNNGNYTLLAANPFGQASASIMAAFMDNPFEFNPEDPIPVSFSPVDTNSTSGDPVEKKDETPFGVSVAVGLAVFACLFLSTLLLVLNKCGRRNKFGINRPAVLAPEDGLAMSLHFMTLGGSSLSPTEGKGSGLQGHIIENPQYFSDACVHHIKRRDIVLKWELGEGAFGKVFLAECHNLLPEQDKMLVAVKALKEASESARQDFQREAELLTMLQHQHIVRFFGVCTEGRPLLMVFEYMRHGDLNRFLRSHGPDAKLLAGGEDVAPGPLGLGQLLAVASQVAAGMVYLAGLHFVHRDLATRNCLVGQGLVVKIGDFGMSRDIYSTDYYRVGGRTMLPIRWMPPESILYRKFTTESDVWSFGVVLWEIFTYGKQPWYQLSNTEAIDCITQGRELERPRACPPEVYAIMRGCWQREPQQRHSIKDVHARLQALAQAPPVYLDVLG
condition-details: at 0.1 µM
Exercise: for every item that follows, state its recorded inhibition.
Numbers only, in %.

Example entries begin here.
COc1cc(Nc2ncc3c(C)nc(-c4cccc(Oc5ccccc5)c4)n3n2)cc(OC)c1OC ... 2.69
CN(C)c1ccc2c(c1)/C(=C/Nc1ccc(S(N)(=O)=O)cc1)C(=O)N2 ... 6.93
CCc1ccc(Oc2nccc(-c3c(-c4ccc(F)cc4)ncn3C3CCNCC3)n2)cc1 ... 4.16
CNC(=O)c1cncc(/C=C/c2c(C)cccc2C)c1 ... 3.36
CN1CCN(CCCNc2nc3ccc(Oc4ccc(NC(=O)Nc5cc(C(F)(F)F)ccc5F)cc4)cc3[nH]2)CC1 ... 2.88

Hi there! I need inhibition for each item below, if you can.
1. CCS(=O)(=O)c1ccc(OC)c(Nc2ncc(-c3ccccc3Cl)o2)c1
2. O=C(Nc1n[nH]c2cc(-c3cc(F)ccc3F)ccc12)C1CC1
3. N#Cc1ccc(Oc2nccc(-c3c(-c4ccc(F)cc4)ncn3C3CCNCC3)n2)cc1
4. COc1cc(Nc2ncc3c(C)nc(-c4cccc(C(F)(F)F)c4)n3n2)cc(OC)c1OC
5. NS(=O)(=O)c1ccc(Nc2cc(-c3ccc(O)c(F)c3)n[nH]2)cc1

1. 2.9
2. 3.75
3. 2.46
4. 2.69
5. 5.68

Hi, could you look up inhibition for each item in my list?
1. COc1cc2ncn(-c3cc(OCc4cccs4)c(C(N)=O)s3)c2cc1OC
2. NCc1ccc(-n2c(-c3nonc3N)nc3cnccc32)cc1
3. O=C1NC(=O)C(c2cccc(Cl)c2)=C1Nc1ccc(Cl)c(C(=O)O)c1
4. CN(C)CCOc1ccc(-c2cc(-c3ccc4c(c3)CCC4=NO)c(-c3ccncc3)o2)cc1
5. O=C(Nc1n[nH]c2cc(-c3ccccc3)ccc12)C1CC1
6. CN(C)CCCNc1nccc(-c2c(-c3ccc(F)cc3)nn3cc(C(F)(F)F)ccc23)n1

1: -0.38; 2: 1.82; 3: 0.94; 4: -1.52; 5: 2.59; 6: 4.23

Please report inhibition for every entry that follows.
1. COc1ccc2cc(-c3c(-c4ccncc4)nc(-c4ccc(S(C)(=O)=O)cc4C)n3C)ccc2c1
2. CS(=O)(=O)CCNCc1ccc(-c2ccc3ncnc(Nc4ccc(OCc5ccccc5)c(Br)c4)c3c2)o1
3. O=C(Nc1n[nH]c2nc(-c3ccc(O)cc3)c(Br)cc12)C1CC1
4. COc1ccc2ncn(-c3cc(O[C@H](C)c4ccccc4Cl)c(C(N)=O)s3)c2c1

1: 3.75; 2: 1.4; 3: 4.06; 4: 8.17

Entry source: ChEMBL document CHEMBL1961873
